test: soluble on expression in E. coli; label from the status in PepcDB or PDB records
assayReadout: soluble on expression in E. coli

Below, 4 sequences whose answers are already recorded.
• MPKAKGKTRRQKFGYSVNRKRLNRNARRKAARGIECSHIRHAWDHAKSVRQNLAEMGLAVDPNRAVPLRKRKVKAMEVDIEERPKELVRKPYVLNDLEAEASLPEKKGNTLSRDLIDYVRYMVENHGEDYKAMARDEKNYYQDTPKQIRSKINVYKRFYPAEWQDFLDSLQKRKMEVELEHHHHHH = not soluble
• MRKVRIANEQTEESDIIKIVHLSDIHFSEAYYMPEIADSMLQIINESSPDIVIITGDLTENGFAAEYNGAKNFIDKIECKNKVIVPGNHDSKNAGYLFFEDIFKARSSSGYFGDVTVIGLDSSQPELDDGHIGRENYGWIESTFSTGSFKVFALHHHLIPIPKTGRGNNVLVDAGDVLELLDRSGVNLVLCGHWHIPWVWRLNDMFIISAGTVCSSKIRGKTSQCYNLIELETPESECTRWHLRITRVFSSGIKELVVDNIV = not soluble
• MSANNTAKNMHPETRAVGSETSSLQASQDEFENLVRNVDVKSRIMDQYADWKGVRYRLGGSTKKGIDCSGFVQRTFREQFGLELPRSTYEQQEMGKSVSRSNLRTGDLVLFRAGSTGRHVGIYIGNNQFVHASTSSGVIISSMNEPYWKKRYNEARRVLSRSLEHHHHHH = soluble
• MGSDKIHHHHHHMNIIKFFNQTIDYIETTLEDKIDEKKIVQLSGYSYPMFSRIFSILTAYSLSEYIRLRRLTKAAFDLRKNEEKVIDIAFKYQYESPDSFSLAFKKYHNCTPMEVKQGKDFKIFSPIHLSLTIKGGKAMEISIKKKEKFIVGGIKAENIETFQCPKVWEELFKKVSFNDLEKLGNGNSYGVCYETTSSKSINYIAAFDVKNVSEAKKLGLDTMEIPEAEYAVVKLKGKIPNCIHEGWKYVMEVFFPEHGYKHAGTPDFELYSEGDMGSDNYEMELWVPIIKAE = not soluble

// for each sequence in input: emit soluble on expression in E. coli
1. LTPILGYGRVRAKVSADIDFTSYEQTQELFNPELSALRSEQTMQESRNASNEASGVPGTLSNTPQPNSSLGQKNNPQQNATPNNLPQQTSSDQMQAKDVRMQTTKNFELDKTISHTKNQPGTIKRLSVAVLVDNRPVMNDKTKKLEKKPLTKEEIEQIKLLVSDAIGLNVKRGDSLNVINSSF
2. IGAWGYNVGFNLYDSKTVVTKYHNESKIILKSDGTNNYYEGYEIGSIWGYVTDGYYTADDFEDTNTWKLKEGVVTVDGVSPRPGDIKYQNLRDDGSSTNRIDTGDGTFDNPGDRKIIGNNSLRLQYGINLGVNYKGFDLSVLLQGVGKRDVWISDARRWPFNSGQFGSLFKDQLDYWKPVDSANGDWTAANPNAEYFRIYGQGNNSSYNTRAQTKYLMNGSYLRVKNVTLSYNFPKSWLAPITLTSLKAFVSCENLHTFTKLMKGYDPERLSWGYPFYRTISFGFNVTL
3. MAHHHHHHMSSSEKKHAAWVDVVAGGFGGALAKSLLSPFQRIVVLQQLGQHKSYSIAQLVHHIYAQEGLKSFWRGNLTSMVIRVPYSGIQFLLYTQLKFLFQDWLDRRHAAAALPTHQADGSSDNS
4. MSLCRVLSVKPSSYYDWINRDISSQQIHRNQSELLIKAAHSETKERYGFERLHAHLNEQGYDISPYMVRNIKEEHGIKCRRHKRFKVTTDSNHNKLIYDNVLDQQFDVNRPNEAWVSDITYIWTTEGWLYLAGVKDLYTKELVGYAINKRMTADLVCKALNMAIKNKRPSKGLIVHSDRGGQYCSHAYHKIIKQHQFKGSMSGKGNCYDNAPIESFWGVLKNELVYHQDYKTRFAAITDIIRYIELYYNQTRIQKGLGYKSPRQVWFDYYRQAAEGHHHHHH
5. MNEMWLHRADLAESAINERHASRLWMLPRTNLAVVAWPPTAKERLFYRWHYWWQAHYLDCLIDAASRRTTKARKQRIRDTIVGIRLRNLGRLTKNNYYDDKSWLALALDRERRLNKRAKREYLRVLEGNIAAGQDDIQGVLPWRVGEHFFNVPTNGPAAIMLARNGEVEQARKLVDWIFDNLINDKGLVMDGLRMSMRGPEIVDPVYPYCQGVVIGACIEIAEALPFEESVQYLAHARAVIHAVAKEMATPEGVINAATGDGDGGLFKGILMRYLADAAVRLPEDGPANIATKKIAKRLVMASAESVWEHRLEVDGLPVFATDWCDDARLPHNYGVGGSALSDIVRVVRIDERDLSVQLSGWMLLEAAARVSLVDLEHHHHHH
6. AIACGDCVEKEYPNRGNTCLENGSFLLNFTGCAVCSKRDFMLITNKSLKEEDGEEIVTYDHLCKNCHHVIARHEYTFSIMDEFQEYTMLCLLCGKAEDTISILPDDPRQMTLLF
7. MPTVRLADGDLNYSLEGPAGAPVLLLSNSLGTDLGMWDTQIPALTAHFRVLRYDTRGHGASLVTPGPYAIGQLGADVLALLDALELPRVHFCGLSMGGLIGQWLGIHAGERLGRLVLCNTAAKIASDEVWNTRIDTVLKGGEQAMRDLRDASVARWFTAGFAEREPAQVERIVAMLAATSPQGYAANCAAVRDADFREQLGLVQAPTLIVAGSHDAVTTPDNARFMQARIADAQLVEFAAAHLSNVEAGDAFSRRLVDFLL

1: not soluble; 2: not soluble; 3: soluble; 4: soluble; 5: soluble; 6: soluble; 7: not soluble

Consider the sequence shown here: MSEQLVTPENVTTKDGKINLLDLNRQQMREFFKDLGEKPFRADQVMKWMYHYCDNFDEMTDINKVLRGKLKEVAEIRAPEVVEEQRSSDGTIKWAIAVGDQRVETVYIPEDDRATLCVSSQVGCALECKFCSTAQQGFNRNLRVSEIIGQVWRAAKIVGAAKVTGQRPITNVVMMGMGEPLLNLNNVVPAMEIMLDDFGFGLSKRRVTLSTSGVVPALDKLGDMIDVALAISLHAPNDEIRDEIVPINKKYNIETFLAAVRRYLEKSNANQGRVTIEYVMLDHVNDGTEHAHQLAELLKDTPCKINLIPWNPFPGAPYGRSSNSRIDRFSKVLMSYGFTTIVRKTRGDDIDAACGQLAGDVIDRTKRTLRKRMQGEAIDIKAV What is its recorded soluble on expression in E. coli?
not soluble
